Reported 100 nM Ag Bound is given for each of the following binders.
# Target System: T1, Macaca fascicularis IL2Rγ extracellular domain expressed with a C-terminal myc-myc-hexahistidine tag (Macaca fascicularis)
# T1 construct: also called mfIL-2Rg-MMH; mfIL-2RG-MMH
# T1 chain: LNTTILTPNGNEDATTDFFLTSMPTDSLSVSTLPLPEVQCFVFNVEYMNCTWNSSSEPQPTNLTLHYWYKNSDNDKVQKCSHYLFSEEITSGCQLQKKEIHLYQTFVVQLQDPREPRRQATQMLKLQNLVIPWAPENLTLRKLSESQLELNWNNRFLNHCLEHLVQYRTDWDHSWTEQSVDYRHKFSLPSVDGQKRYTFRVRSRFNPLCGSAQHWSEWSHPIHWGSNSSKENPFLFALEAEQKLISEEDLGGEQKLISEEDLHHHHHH
# Run Description: SPR Biacore 4000, mAb captured by anti-hFc, HBS-ET, 25C
# Description: Equilibrium dissociation constants (KD values) for IL-2Rγ binding to purified anti-IL2Rγ monoclonal antibodies were determined using a Biacore 4000 instrument equipped with a real-time surface plasmon resonance biosensor. […] The dissociation of monoclonal antibody bound IL2Rγ reagents were monitored for 8-10 minutes in HBS-ET running buffer. […] Binding dissociation equilibrium constants (KD) and dissociative half-lives (t_{1/2}) were calculated from the kinetic rate constants as: […]
Expressed in RU, but write only the number.

- Binder: "H4H12871P (antibody, human IgG4 S228P, kappa, V domains shown, anti-IL2Rγ monoclonal antibody expressed with human IgG4 Fc; also called REGN9434) VH: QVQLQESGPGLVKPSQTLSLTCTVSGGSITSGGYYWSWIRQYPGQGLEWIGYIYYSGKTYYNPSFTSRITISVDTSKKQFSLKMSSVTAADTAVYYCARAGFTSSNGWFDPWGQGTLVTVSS VL: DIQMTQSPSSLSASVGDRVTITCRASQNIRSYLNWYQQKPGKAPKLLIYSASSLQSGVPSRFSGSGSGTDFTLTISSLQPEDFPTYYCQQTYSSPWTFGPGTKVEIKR"
  100 nM Ag Bound, RU: 72

Incoming: Reported 100 nM Ag Bound, binder H4H12899P (antibody, human IgG4 S228P, kappa, V domains shown, anti-IL2Rγ monoclonal antibody expressed with human IgG4 Fc) VH: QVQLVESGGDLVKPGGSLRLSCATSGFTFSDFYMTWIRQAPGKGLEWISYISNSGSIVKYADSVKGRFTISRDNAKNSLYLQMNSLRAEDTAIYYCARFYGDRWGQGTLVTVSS VL: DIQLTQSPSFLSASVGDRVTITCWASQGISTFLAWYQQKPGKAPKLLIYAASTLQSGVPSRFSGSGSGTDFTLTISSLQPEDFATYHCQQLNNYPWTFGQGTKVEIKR : ____
Outgoing: 54
